# Tested on: P. pyralis FLuc (Photinus pyralis, UniProt P08659)
# Sequence (P08659 whole entry): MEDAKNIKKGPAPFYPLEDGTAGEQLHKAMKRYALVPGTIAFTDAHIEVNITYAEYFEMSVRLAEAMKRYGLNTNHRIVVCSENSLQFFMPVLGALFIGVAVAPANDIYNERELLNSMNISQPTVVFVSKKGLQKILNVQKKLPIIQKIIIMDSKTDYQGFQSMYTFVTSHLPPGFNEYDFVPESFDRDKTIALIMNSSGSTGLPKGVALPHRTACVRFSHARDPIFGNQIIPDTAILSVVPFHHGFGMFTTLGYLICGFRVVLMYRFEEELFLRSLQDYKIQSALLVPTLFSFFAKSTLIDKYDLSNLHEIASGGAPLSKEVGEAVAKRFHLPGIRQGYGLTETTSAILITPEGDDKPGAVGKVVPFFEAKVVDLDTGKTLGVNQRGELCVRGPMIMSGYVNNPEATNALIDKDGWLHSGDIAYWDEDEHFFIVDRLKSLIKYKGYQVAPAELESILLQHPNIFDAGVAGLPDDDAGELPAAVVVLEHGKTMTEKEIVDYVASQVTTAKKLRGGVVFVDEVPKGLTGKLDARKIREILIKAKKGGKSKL
# Protocol description: FLuc enzymatic luminescence assay, P. pyralis FLuc
# Format: biochemical
# Reported conditions: FLuc enzymatic assay; Clade S follow-up
# Protocol: The enzyme activity of FLuc-N-HiBiT, FLuc-C-HiBiT, and FLuc-C-NLuc was measured similar to P. pyralis firefly luciferase (FLuc) as previously described. […] Luciferin was incubated with FLuc enzyme for 5 min before FLuc activity was then measured on a ViewLux CCD imager (PerkinElmer), with exposure times up to ten seconds with medium to high gain settings. […] 5 Detector ViewLux Read plate lum inescence (Exposure = 1- 10 sec; Gain = Medium -high; Speed = Slow; […]
Items are presented alongside their recorded Efficacy (%) FLuc E.
Measure: Efficacy (%) FLuc E

- CC(NC(=O)C1CCN(C(=O)c2ncn3c2COC(c2ccc(F)cc2)C3)CC1)c1ccc(F)cc1 (stereo not shown): 0.00%
- O=C(NCc1ccncc1)C1CCN(C(=O)c2ncn3c2COC(c2ccc(F)cc2)C3)CC1 (stereo not shown): -87.47%
- COc1ccc(C2Cn3cnc(C(=O)N4CCC(C(=O)NCC5CC5)CC4)c3CO2)cc1 (stereo not shown): 0.00%
- O=C(NCc1ccc(F)cc1)C1CCN(C(=O)c2ncn3c2COC(c2ccc(Cl)cc2)C3)CC1 (stereo not shown): -25.63%

----------
# Tested on: FLuc-C-HiBiT (Photinus pyralis, UniProt P08659)
# Construct: firefly luciferase with C-terminal HiBiT tag, E. coli expressed
# Sequence (P08659 whole entry, looked up): as the sequence (P08659 whole entry) above
# Protocol description: biochemical
# Reported conditions: enzyme activity, 10 uM ATP; read-out: IC50 or SDR50 (mM) / FLuc E
Measure: log10(IC50) (log10 of the value in mM)

* COc1cc(Cl)ccc1-c1ccc(COc2ccc3c(cnn3CCC(=O)O)c2)cc1 | -1.69
* Cc1c(-c2ccccc2F)[nH]c2ccc(CNC(=O)C3C=CCN3)cc12 (centres unmarked) | -1.91
* CC(=O)c1cccc(NC(=O)c2nc3ccccc3n(C)c2=O)c1 | -2.50
* Brc1ccc(-c2nc(-c3ccccn3)no2)o1 | -2.91
* Cc1ccc(NC(=O)c2ncoc2-c2ccco2)cc1Cl | -2.20
* CC(=O)N1CCNc2cc(-c3cccc(N4CCOCC4)c3)ncc2C1 | -1.74
* CCc1ccc(C(=O)Nc2ccc3c(N4CCOCC4)ncnc3c2)cc1 | -2.11
* COc1ccc(C(=O)Oc2ccc(C(c3c(C)n[nH]c3O)c3c(C)n[nH]c3O)cc2)cc1 | -2.00
* CCc1ccc(-n2nc(CO)c(C(=O)NC)n2)cc1 | -1.75
* CCc1nnc(CC2CCN(C(=O)Nc3ccc4c(c3)OCCO4)CC2)[nH]1 | -1.95
* CC(=O)Nc1cccc(-c2ccc(COc3ccc4c(cnn4CCC(=O)O)c3)cc2)c1 | -3.00
* Cc1ccc(-c2cc(N)n(-c3ccc(C)cc3)n2)cc1 | -2.00
* CC(C)(O)CCc1ccc(C(=O)NCCSc2ccccn2)cc1 | -1.75
* Oc1cccc(-c2cc3c(cn2)CN(Cc2cccnc2)CCN3)c1 | -1.64
* Cc1ccc(NC(=O)N2CCC(CCNC(=O)C3CC3)CC2)cc1F | -1.95
* O=C1CCC2(C(=O)NCCc3ccccc3)CCCC=C2N1c1ccccc1 (centres unmarked) | -1.80
* Cc1ccc(-c2cc3c(=O)n(CCNC(=O)c4ccccc4F)ccn3n2)c(C)c1 | -2.15
* Fc1ccc(Cc2cn3cc(-c4ccccc4)nc3s2)cc1 | -3.35
* O=C(O)c1ccc(-c2nnc3ccc(NC(=O)C4CCC4)cn23)cc1 | -1.95
* COc1ccc(-c2noc(Nc3ccc(OC)c(OC)c3)n2)cc1 | -1.95
* COc1ccc2nc(-c3ccc(Oc4ccccc4)cc3)sc2c1 | -1.95
* COCCN1CCC2(C1)CN(C)c1ccc(C(=O)Nc3ccn(C)n3)cc12 (centres unmarked) | -2.00
* CC(C)Oc1cccc(-c2cccc(COc3ccc4c(cnn4CC[S+](C)(=O)[O-])c3)c2)c1 | -1.95
* CC(C)n1cnnc1CC1CCN(C(=O)Nc2ccc3c(c2)OCCO3)CC1 | -2.00
* c1ccc(COc2cccc(-c3nc4ccccc4s3)c2)cc1 | -2.31
* CCCN1CCc2nc(C(=O)Nc3ccccc3)oc2CC1 | -1.74
* CC(=O)NC1CCN(Cc2cn(-c3ccc(C)cc3)nc2-c2cccc(C)c2)C1 (centres unmarked) | -1.85

The values you see were collected from paper PMC12064818.
